tested on: HCT-116 colon; experiment: NCI tumour cell line growth inhibition, 48 h; in the data active = GI50 below about 0.43 µM; inactive = the rest
One label from this list, please: 1 for active, -1 for inactive

Solved entries (count: 9):
{"Compound": "Cn1nc(C(F)(F)F)c(-c2ccc(Cl)c(C(F)(F)F)c2)c1-c1ccc(OCc2ccc(Cl)cc2)cc1O", "Category": -1}
{"Compound": "CC1(C)N=C(N)N=C(N)N1c1cccc(C#N)c1", "Category": 1}
{"Compound": "O=C1NC(=O)/C(=C/C=C/c2ccccc2)S1", "Category": -1}
{"Compound": "C=CN1C(=O)OC(c2ccccc2)C1c1ccccc1 (stereo not given)", "Category": -1}
{"Compound": "COc1ccc(-c2ccc(/C=C/C(=O)NO)cc2)cc1", "Category": -1}
{"Compound": "COc1ccc(SC2c3cc(OC)c(OC)cc3Oc3nc(N)c(C#N)c(N)c32)cc1 (stereo not given)", "Category": -1}
{"Compound": "Cc1ccc2c(c1)C(=O)c1c-2n(CCCN)c(=O)c2cc([N+](=O)[O-])ccc12", "Category": 1}
{"Compound": "CC(=O)OCC1OC(OC2C(COC(C)=O)OC(OCCC[S-])C(OC(C)=O)C2OC(C)=O)C(OC(C)=O)C(OC(C)=O)C1OC(C)=O.[Au+].c1ccc(CN2[CH-]N(Cc3ccccc3)C(c3ccccc3)=C2c2ccccc2)cc1 (stereo not given)", "Category": -1}
{"Compound": "CC1(C)CCC[C@]23C(=O)O[C@](O)(C(=O)C4=C[C@@](C)(/C=C/CCCc5ccc6ccc7cccc8ccc5c6c78)CC[C@@]42O)[C@@H]13", "Category": 1}

Then this compound:
[ask] Entry C/C1=C\[C@H](C)C[C@H](C)OC(=O)C[C@H](c2ccc(O)cc2)NC(=O)[C@@H](Cc2c(Br)[nH]c3ccccc23)N(C)C(=O)[C@H](C)NC(=O)[C@@H](C)C1 : call = ?
[reply] 1

====

test system: HT29 colon; experiment: NCI tumour cell line growth inhibition, 48 h
Readout: TGI

Please review the entries below; each comes with its answer.
{"Compound": "CCOC(=O)c1nc2c3c(ncn2n1)Oc1c(c(-c2ccccc2)nn1-c1ccccc1)C3c1ccc(Cl)cc1 (stereo unspecified)", "Readout": "TGI", "Recorded measurement": "> 100 µM"}
{"Compound": "CCOC1OCCCC1Br (stereo unspecified)", "Readout": "TGI", "Recorded measurement": "> 100 µM"}
{"Compound": "C=CN1C(=O)OC(c2ccccc2)C1c1ccccc1 (stereo unspecified)", "Readout": "TGI", "Recorded measurement": "> 100 µM"}
{"Compound": "Cc1cc2ccccc2n1CC(=O)NCC(C)C", "Readout": "TGI", "Recorded measurement": "> 100 µM"}
{"Compound": "OCC(O)C(O)c1nn(-c2ccccc2)c2nc3cc(Cl)c(Cl)cc3nc12 (stereo unspecified)", "Readout": "TGI", "Recorded measurement": "56 µM"}

Now look at this one.
[ask] // TGI lookup, key: Cc1nnc2cc(C(=O)O)c3ccccc3n2c1=O
[reply] > 10 µM

====

test system: M14 melanoma; assay: NCI tumour cell line growth inhibition, 48 h
Record form. Attribute: TGI. Fill in for each entry.

{"Compound": "COC(=O)C(/C(=N/NC(=O)c1ccncc1)C(=O)Nc1ccccc1OC)c1nc2ccc(Cl)cc2[nH]c1=O (stereo not given)", "Tested on": "M14 melanoma", "TGI": "> 100 µM"}
{"Compound": "C=C1CCC2C3(C)COC(c4ccc(NC(C)=O)cc4)OC3CCC2(C)C1C/C=C1/C(=O)OCC1O (stereo not given)", "Tested on": "M14 melanoma", "TGI": "> 100 µM"}
{"Compound": "C/C(=C/CO[Si](C)(C)C(C)(C)C)C(=O)N(C)c1ccccc1I", "Tested on": "M14 melanoma", "TGI": "28.6 µM"}
{"Compound": "CS(=O)(=O)OCCN1CCC2(CC1)SSC1(CCN(CCOS(C)(=O)=O)CC1)S2", "Tested on": "M14 melanoma", "TGI": "> 100 µM"}

Now look at this one.
[ask] // TGI lookup, key: Cc1cc2ccccc2c[n+]1CC(O)C[n+]1cc2ccccc2cc1C
[reply] > 100 µM
